# test_target: DCN1 (DCUND1) protein PONY domain (Homo sapiens (Human))
# Sequence (Q96GG9 60-248): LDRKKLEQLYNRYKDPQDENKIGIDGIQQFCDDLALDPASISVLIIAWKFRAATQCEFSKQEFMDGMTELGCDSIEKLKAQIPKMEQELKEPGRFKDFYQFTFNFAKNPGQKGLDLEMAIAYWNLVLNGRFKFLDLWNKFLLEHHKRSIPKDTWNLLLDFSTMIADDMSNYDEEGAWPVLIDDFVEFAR
# assay_info: TR-FRET assay, DCN1 binding with FAM-labeled probe
# condition_context: TR FRET IC50 1 hr (nM), 1 hr after treatment with compound
Here, each record is paired with measured IC50 data.
parameter_measured: IC50

{"columns": ["molecule", "parameter_measured", "result"],
 "data": [
  ["CCN1C(=O)[C@@H](NC(=O)c2cccc(C(F)(F)F)c2)[C@@H](C2CC2)c2c(C(=O)N3[C@H](C#N)C[C@@H]4C[C@@H]43)nn(C3CCOCC3)c21 [Compound I-441]", "IC50", "1000 to 3000 nM"],
  ["CCN1C(=O)[C@@H](NC(=O)c2cccc3[nH]ncc23)[C@@H](C2CC2)c2c(C(=O)N3[C@H](C#N)C[C@H]4C[C@H]43)nn(C3CCOCC3)c21 [Compound I-602]", "IC50", "1000 to 3000 nM"],
  ["C#C[C@@H]1CCCN1C(=O)c1nn(C2CCOCC2)c2c1[C@H](C1CC1)[C@H](NC(=O)c1cccc(C(F)(F)F)c1)C(=O)N2CC [Compound I-594]", "IC50", "1000 to 3000 nM"],
  ["CCCn1nc(C(=O)N(CC#N)C2CC2)c2c1N(CC)C(=O)[C@@H](NC(=O)c1cccc(C(F)(F)F)c1)[C@H]2c1ccc(F)cc1 [Compound I-356]", "IC50", "200 to 1000 nM"],
  ["CCN1C(=O)[C@@H](NC(=O)c2cccc(C(F)(F)F)c2)[C@@H](c2ccc(F)cc2)c2c(CNC(=O)C34CC3C4)nn(-c3ccccc3)c21 (some centres unmarked) [Compound I-114]", "IC50", "200 to 1000 nM"]
]}

Hello, the source for this data is patent US20250163057A1, in case you need it.
